- Assayed system: T1, Mcl-1, Q07820
- T1 chain: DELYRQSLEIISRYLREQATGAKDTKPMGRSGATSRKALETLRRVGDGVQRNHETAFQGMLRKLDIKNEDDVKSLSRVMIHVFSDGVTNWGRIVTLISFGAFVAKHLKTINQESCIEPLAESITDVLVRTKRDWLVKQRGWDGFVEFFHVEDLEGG
- Assay remarks: peptide SPOT array, c-Myc-tagged receptor at 1 uM or 100 nM, anti-c-Myc-Cy3
Measurement kind: SPOT signal as a fraction of Bim BH3's signal on the same receptor and array

Solved cases (5 shown):
1. GYPFNDVCQWDIDRADLIFVVFDPTK [SRL] = 0.06
2. LCQLSCVSKLMRDVLGSLLQSRGMVI [FBXO30] = 0.26
3. MQTLSELAKSFQDMLDRCLLVLHLEV [EXOC4] = 0.04
4. ATPPAASPSALKGVSQDLLERIRAKE [CDT1] = 0.03
5. LELVSGSIGVLKNMSQRIGGELEEQA [STX6] = 0.02

P = WTLFVYTKGNFRMILDDLVNSYHLLL [RBL1]
Q = KCRHEEVVQVLRNAGEEVTLTVSFLK [SNTG1]
Could you tell me which of P and Q has the lower SPOT signal as a fraction of Bim BH3's signal on the same receptor and array reading? // respond with label for picked entry
Q
